As shown below, each of these binders has a reported pKd value.
- system: T1, cynomolgus monkey CD73 antigen (cynomolgus monkey, UniProt A0A2K5V5U7 27-547)
- T1 construct: also called Biotinylated cynomolgus monkey CD73
- T1 sequence: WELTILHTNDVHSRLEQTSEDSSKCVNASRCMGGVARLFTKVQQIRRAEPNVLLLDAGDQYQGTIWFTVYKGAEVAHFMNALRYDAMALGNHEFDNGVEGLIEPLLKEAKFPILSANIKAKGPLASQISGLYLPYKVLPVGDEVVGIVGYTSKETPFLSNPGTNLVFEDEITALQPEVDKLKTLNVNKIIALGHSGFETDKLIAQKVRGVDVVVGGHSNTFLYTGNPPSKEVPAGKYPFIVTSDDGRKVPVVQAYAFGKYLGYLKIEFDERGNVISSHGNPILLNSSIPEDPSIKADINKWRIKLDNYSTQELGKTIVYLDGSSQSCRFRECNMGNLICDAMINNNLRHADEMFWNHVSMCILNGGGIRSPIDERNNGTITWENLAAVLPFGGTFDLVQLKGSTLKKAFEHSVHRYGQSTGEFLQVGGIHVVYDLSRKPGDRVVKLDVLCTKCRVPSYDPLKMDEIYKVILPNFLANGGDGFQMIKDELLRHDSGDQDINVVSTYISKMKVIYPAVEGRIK
- assay_text: ForteBio BLI; IgG on AHQ sensor, 100 nM antigen; bivalent; 1:1 model
pKd: −log10 of the molar value.
assay_endpoint: pKd

[[record]]
binder = "ADI-34074 (antibody, human IgG4 S228P, kappa, F234A L235A, V domains shown, Parental antibody; also called AD-34074) VH: EVQLVESGGGLVQPGRSLRLSCAASGFTFDDYAMHWVRQAPGKGLEWVSGISWSSGSIGYADSVKGRFTISRDNAKNSLYLQMNSLRAEDTAVYYCAKGKYLPTGSVDYWGQGTLVTVSS VL: EIVLTQSPGTLSLSPGERATLSCRASQSVSSSYLAWYQQKPGQAPRLLIYGASSRATGIPDRFSGSGSGTDFTLTISRLEPEDFAVYYCQQYYDYPPITFGGGTKVEIKR"
assay_endpoint = "pKd"
value = 8.50

[[record]]
binder = "ADI-34101 (antibody, human IgG4 S228P, kappa, F234A L235A, V domains shown, Parental antibody) VH: QVQLVESGGGVVQPGRSLRLSCAASGFTFSSYGMHWVRQAPGKGLEWVAVISYEGSNKYYADSVKGRFTISRDNSKNTLYLQMNSLRAEDTAVYYCARSRYDWSLFDIWGQGTMVTVSS VL: EIVLTQSPGTLSLSPGERATLSCRASQSVSSSYLAWYQQKPGQAPRLLIYGASSRATGIPDRFSGSGSGTDFTLTISRLEPEDFAVYYCQQYVLYPFTFGGGTKVEIKR"
assay_endpoint = "pKd"
value = 8.80

[[record]]
binder = "Oleclumab (antibody, V domains shown) VH: EVQLLESGGGLVQPGGSLRLSCAASGFTFSSYAYSWVRQAPGKGLEWVSAISGSGGRTYYADSVKGRFTISRDNSKNTLYLQMNSLRAEDTAVYYCARLGYGRVDEWGRGTLVTVSS VL: QSVLTQPPSASGTPGQRVTISCSGSLSNIGRNPVNWYQQLPGTAPKLLIYLDNLRLSGVPDRFSGSKSGTSASLAISGLQSEDEADYYCATWDDSHPGWTFGGGTKLTVL"
assay_endpoint = "pKd"
value = 9.02

[[record]]
binder = "ADI-34086 (antibody, human IgG4 S228P, kappa, F234A L235A, V domains shown, Parental antibody) VH: EVQLLESGGGLVQPGGSLRLSCAASGFTFSNYAMSWVRQAPGKGLEWVSAISGSGGSTYYADSVKGRFTISRDNSKNTLYLQMNSLRAEDTAVYYCARGGPYGSGSYWDTFDYWGQGTLVTVSS VL: EIVMTQSPATLSVSPGERATLSCRASQSVSSNLAWYQQKPGQAPRLLIYGASTRATGIPARFSGSGSGTEFTLTISSLQSEDFAVYYCQQYTNHYTFGGGTKVEIKR"
assay_endpoint = "pKd"
value = 8.72

